Molecular target: CYP 2B6 (Homo sapiens)
Sequence (P20813 1-491): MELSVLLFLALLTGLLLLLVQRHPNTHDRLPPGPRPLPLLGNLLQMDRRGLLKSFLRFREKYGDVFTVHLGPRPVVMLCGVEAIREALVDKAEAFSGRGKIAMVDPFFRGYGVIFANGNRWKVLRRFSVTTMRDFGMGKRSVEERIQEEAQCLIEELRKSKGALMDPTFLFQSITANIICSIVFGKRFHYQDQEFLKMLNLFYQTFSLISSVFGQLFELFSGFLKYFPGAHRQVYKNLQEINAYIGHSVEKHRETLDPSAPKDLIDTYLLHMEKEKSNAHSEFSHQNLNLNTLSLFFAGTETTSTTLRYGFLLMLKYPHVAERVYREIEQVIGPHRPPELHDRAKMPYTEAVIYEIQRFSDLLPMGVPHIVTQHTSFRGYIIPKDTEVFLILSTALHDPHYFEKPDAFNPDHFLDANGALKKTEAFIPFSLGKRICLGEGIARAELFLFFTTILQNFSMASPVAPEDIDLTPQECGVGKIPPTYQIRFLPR
Test: Kinetic properties of fluorogenic substrates with CYP 2B6
Format: biochemical
REPORTED_METRIC: type of kinetics

{"columns": ["MOLECULE", "type of kinetics"],
 "data": [
  ["O=c1ccc2nc3ccc(OCc4ccccc4)cc3oc-2c1 [BR, Benzylresorufin, reference compound]", "notMichaelis-Menten"],
  ["COc1ccc(COc2ccc3nc4ccc(=O)cc-4oc3c2)cc1 [MOBR, Paramethoxybenzylresorufin]", "Michaelis-Menten"],
  ["N#Cc1cc2ccc(OCc3ccccc3)cc2oc1=O [BCC, 7-Benzyloxy-3-cyanocoumarin, reference compound]", "Michaelis-Menten"],
  ["N#Cc1cc2ccc(OCOCc3ccccc3)cc2oc1=O [BOMCC, 7-Benzyloxymethyloxy-3-cyanocoumarin]", "Michaelis-Menten"],
  ["COCOc1ccc2c(C(F)(F)F)cc(=O)oc2c1 [MOMFC, 7-Methyloxymethyloxy-4-trifluorocoumarin]", "notMichaelis-Menten"]
]}

Query block: Enter reported type of kinetics observed with CYP 2B6 (Homo sapiens) for O=c1ccc2nc3ccc(OCOCc4ccccc4)cc3oc-2c1 [BOMR, Benzyloxymethylresorufin]
Result block: notMichaelis-Menten

// provenance: patent US7132252B2
